Molecular target: EGFR (Homo sapiens, UniProt P00533)
Sequence (P00533 25-1210): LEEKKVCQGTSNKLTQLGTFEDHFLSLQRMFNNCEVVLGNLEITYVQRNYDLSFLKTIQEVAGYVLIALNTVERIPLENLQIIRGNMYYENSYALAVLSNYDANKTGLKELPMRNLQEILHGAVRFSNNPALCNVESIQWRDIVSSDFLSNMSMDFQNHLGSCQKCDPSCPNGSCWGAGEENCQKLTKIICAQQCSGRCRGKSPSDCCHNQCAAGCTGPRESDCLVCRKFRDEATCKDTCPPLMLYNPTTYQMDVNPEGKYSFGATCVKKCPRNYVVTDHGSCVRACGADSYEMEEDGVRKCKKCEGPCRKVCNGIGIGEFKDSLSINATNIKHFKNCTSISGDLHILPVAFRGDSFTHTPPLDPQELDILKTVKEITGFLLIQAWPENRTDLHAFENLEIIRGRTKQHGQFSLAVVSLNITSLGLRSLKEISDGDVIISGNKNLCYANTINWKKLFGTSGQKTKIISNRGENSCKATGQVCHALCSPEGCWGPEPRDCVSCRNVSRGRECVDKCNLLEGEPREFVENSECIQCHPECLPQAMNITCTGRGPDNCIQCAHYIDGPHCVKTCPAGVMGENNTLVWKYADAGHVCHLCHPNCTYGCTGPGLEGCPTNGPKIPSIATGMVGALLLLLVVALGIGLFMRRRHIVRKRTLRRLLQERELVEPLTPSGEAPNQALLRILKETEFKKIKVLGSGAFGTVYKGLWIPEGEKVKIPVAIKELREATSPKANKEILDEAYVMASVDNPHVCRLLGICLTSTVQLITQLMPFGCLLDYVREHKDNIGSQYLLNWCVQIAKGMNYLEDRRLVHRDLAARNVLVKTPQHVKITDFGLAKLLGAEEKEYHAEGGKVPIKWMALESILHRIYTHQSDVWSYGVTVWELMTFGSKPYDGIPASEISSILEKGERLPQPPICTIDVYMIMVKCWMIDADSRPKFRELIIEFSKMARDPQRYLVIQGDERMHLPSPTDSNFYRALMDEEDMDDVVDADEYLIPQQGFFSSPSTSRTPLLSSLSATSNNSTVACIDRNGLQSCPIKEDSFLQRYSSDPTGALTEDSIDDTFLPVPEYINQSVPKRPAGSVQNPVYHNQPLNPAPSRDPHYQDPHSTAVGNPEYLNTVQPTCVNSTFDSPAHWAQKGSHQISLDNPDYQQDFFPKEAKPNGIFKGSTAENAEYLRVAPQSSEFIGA
quantity_name: IC50 (nM)

a: CC(C)c1cc(C(=O)N2CCc3c(sc4ncnc(Nc5ccc(Br)cc5)c34)C2)c(O)cc1O
b: CC(C)c1cc(C(=O)N2CCc3c(sc4ncnc(Nc5ccc(Cl)cc5)c34)C2)c(O)cc1O
c: CC(C)c1cccc(Nc2ncnc3sc4c(c23)CCN(C(=O)c2cc(C(C)C)c(O)cc2O)C4)c1
Task: Rank by decreasing IC50 the items listed here. In your reply, arrange the labels in the requested order.
Result: c, b, a
(c: 380 nM, b: 76.6 nM, a: 49.9 nM)

P: CCc1cccc(Nc2ncnc3sc4c(c23)CCN(C(=O)c2cc(C(C)C)c(O)cc2O)C4)c1
Q: CC(C)c1cc(C(=O)N2CCc3c(sc4ncnc(Nc5cccc(Cl)c5)c34)C2)c(O)cc1O
Task: Could you check which of P and Q has a smaller value for IC50? Response format: the label of the selected entry.
Result: Q

A: CC(C)c1cc(C(=O)N2CCc3c(sc4ncnc(Nc5cccc(F)c5)c34)C2)c(O)cc1O
B: CC(C)c1cc(C(=O)N2CCc3c(sc4ncnc(Nc5cccc(O)c5)c34)C2)c(O)cc1O
Task: Could you check which of A and B has a smaller value for IC50? Response format: the label of the selected entry.
Result: A
(A: 40.2 nM, B: 147 nM)

A: Cc1cccc(Nc2ncnc3sc4c(c23)CCN(C(=O)c2cc(C(C)C)c(O)cc2O)C4)c1
B: Cc1ccc(Nc2ncnc3sc4c(c23)CCN(C(=O)c2cc(C(C)C)c(O)cc2O)C4)c(C)c1
Task: Hi there! Just curious which has the higher IC50 between A and B . Response format: the label of the selected entry.
Result: B

* * *

Target: PI3Kα (Homo sapiens)
Sequence (P42336 whole entry): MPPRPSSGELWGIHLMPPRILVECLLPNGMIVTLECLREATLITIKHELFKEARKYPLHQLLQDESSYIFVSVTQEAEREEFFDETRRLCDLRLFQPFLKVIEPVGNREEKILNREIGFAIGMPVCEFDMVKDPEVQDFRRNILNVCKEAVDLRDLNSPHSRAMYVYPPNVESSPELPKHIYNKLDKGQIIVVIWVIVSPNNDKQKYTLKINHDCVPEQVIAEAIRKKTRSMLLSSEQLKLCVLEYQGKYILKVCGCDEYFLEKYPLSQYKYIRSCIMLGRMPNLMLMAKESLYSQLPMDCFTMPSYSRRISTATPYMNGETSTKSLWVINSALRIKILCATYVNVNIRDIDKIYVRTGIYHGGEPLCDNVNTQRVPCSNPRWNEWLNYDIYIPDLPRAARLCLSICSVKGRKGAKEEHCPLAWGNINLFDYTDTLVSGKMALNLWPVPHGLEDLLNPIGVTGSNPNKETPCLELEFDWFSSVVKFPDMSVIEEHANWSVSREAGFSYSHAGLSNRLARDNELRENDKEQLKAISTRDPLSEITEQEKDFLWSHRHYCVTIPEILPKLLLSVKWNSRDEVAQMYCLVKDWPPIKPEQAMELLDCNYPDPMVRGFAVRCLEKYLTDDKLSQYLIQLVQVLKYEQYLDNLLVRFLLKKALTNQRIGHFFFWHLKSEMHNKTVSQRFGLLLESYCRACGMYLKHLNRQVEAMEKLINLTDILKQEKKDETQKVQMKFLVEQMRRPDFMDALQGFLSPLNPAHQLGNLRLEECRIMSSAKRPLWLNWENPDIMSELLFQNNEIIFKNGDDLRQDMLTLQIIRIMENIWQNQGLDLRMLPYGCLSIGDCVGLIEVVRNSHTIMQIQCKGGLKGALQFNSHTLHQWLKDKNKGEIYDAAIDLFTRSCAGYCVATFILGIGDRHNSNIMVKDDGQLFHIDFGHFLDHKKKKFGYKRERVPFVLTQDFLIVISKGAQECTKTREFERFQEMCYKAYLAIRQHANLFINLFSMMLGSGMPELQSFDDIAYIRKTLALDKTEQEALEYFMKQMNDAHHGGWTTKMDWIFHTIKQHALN
Sequence (P27986 whole entry partner): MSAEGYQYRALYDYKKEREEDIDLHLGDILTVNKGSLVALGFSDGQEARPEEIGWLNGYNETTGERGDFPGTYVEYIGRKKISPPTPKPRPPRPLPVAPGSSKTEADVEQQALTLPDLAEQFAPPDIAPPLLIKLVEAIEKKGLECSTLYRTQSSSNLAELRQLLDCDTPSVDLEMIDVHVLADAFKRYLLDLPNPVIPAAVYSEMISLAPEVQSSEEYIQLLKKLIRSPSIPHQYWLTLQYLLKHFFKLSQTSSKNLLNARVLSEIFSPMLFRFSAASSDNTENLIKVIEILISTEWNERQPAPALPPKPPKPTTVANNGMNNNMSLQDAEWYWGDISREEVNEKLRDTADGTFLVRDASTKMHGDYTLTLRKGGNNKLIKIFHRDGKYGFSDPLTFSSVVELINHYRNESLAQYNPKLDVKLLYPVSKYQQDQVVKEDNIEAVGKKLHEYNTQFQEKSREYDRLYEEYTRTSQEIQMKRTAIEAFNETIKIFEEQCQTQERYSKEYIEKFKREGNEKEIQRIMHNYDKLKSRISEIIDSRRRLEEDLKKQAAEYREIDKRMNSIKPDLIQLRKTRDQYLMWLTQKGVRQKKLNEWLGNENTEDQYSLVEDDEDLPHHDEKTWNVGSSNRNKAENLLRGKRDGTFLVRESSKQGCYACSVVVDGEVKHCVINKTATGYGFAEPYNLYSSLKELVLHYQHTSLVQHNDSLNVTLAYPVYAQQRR
quantity_name: IC50 (nM)

Here are 2 compounds together with their reported answers.
[
  {
    "smiles_string": "CC(C)c1cc(C(=O)N2CCc3c(sc4ncnc(N5CCCC5)c34)C2)c(O)cc1O",
    "IC50, nM": 169
  },
  {
    "smiles_string": "CC(C)c1cc(C(=O)N2CCc3c(sc4ncnc(N(C)C)c34)C2)c(O)cc1O",
    "IC50, nM": 568
  }
]

P: CC(C)c1cc(C(=O)N2CCc3c(sc4ncnc(N5CCOCC5)c34)C2)c(O)cc1O
Q: CC(C)c1cc(C(=O)N2CCc3c(sc4ncnc(N5CCCCC5)c34)C2)c(O)cc1O
Task: Hi there! Just curious which has the higher IC50 between P and Q . Response format: the label of the selected entry.
Result: Q
